TARGET OR TEST SYSTEM: Kelch-like ECH-associated protein-1 (Keap1) (UniProt Q14145 321-609, limits assumed)
Sequence (Q14145 321-609 limits assumed): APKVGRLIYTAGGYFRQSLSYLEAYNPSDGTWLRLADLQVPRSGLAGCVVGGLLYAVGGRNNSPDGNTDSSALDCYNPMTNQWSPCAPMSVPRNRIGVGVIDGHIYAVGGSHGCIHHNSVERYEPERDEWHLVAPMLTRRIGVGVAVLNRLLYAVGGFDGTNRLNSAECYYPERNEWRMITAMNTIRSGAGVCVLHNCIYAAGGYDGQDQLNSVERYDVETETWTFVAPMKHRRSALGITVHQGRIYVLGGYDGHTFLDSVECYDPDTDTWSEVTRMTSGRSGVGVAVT
ASSAY OVERVIEW: fluorescence anisotropy competition assay, displacement of the fluorescent Nrf2 peptide from Keap1
Square brackets hold non-standard residues; d marks the D form. 2Nal = N[C@@H](Cc1ccc2ccccc2c1)C(=O)O
Provide the recorded pIC50 for the entries that follow.
# log scale: pIC50 equals minus log10 of the concentration in mol/L

Provide pIC50 value for the following binder: cyclo(FF[2Nal][dR][dP]PRRFLNAETGE) (SMILES CC(C)C[C@@H]1NC(=O)[C@H](Cc2ccccc2)NC(=O)[C@H](CCCNC(=N)N)NC(=O)[C@H](CCCNC(=N)N)NC(=O)[C@@H]2CCCN2C(=O)[C@H]2CCCN2C(=O)[C@@H](CCCNC(=N)N)NC(=O)[C@H](Cc2ccc3ccccc3c2)NC(=O)[C@H](Cc2ccccc2)NC(=O)[C@H](Cc2ccccc2)NC(=O)[C@H](CCC(=O)O)NC(=O)CNC(=O)[C@H]([C@@H](C)O)NC(=O)[C@H](CCC(=O)O)NC(=O)[C@H](C)NC(=O)[C@H](CC(N)=O)NC1=O, also called cyclo(F-F-Φ-r-p-P-R-R-F-L-N-A-E-T-G-E)) [BH16]
5.83

Look up and state reported pIC50 for cyclo(F[2Nal][dR][dP]PRRFNAETGE) (SMILES C[C@@H]1NC(=O)[C@H](CC(N)=O)NC(=O)[C@H](Cc2ccccc2)NC(=O)[C@H](CCCNC(=N)N)NC(=O)[C@H](CCCNC(=N)N)NC(=O)[C@@H]2CCCN2C(=O)[C@H]2CCCN2C(=O)[C@@H](CCCNC(=N)N)NC(=O)[C@H](Cc2ccc3ccccc3c2)NC(=O)[C@H](Cc2ccccc2)NC(=O)[C@H](CCC(=O)O)NC(=O)CNC(=O)[C@H]([C@@H](C)O)NC(=O)[C@H](CCC(=O)O)NC1=O, also called cyclo(F-Φ-r-p-P-R-R-F-N-A-E-T-G-E)) [BH19]
5.26

For the binder cyclo(FF[2Nal][dR][dP]PRRFQLNAETGE) (SMILES CC(C)C[C@@H]1NC(=O)[C@H](CCC(N)=O)NC(=O)[C@H](Cc2ccccc2)NC(=O)[C@H](CCCNC(=N)N)NC(=O)[C@H](CCCNC(=N)N)NC(=O)[C@@H]2CCCN2C(=O)[C@H]2CCCN2C(=O)[C@@H](CCCNC(=N)N)NC(=O)[C@H](Cc2ccc3ccccc3c2)NC(=O)[C@H](Cc2ccccc2)NC(=O)[C@H](Cc2ccccc2)NC(=O)[C@H](CCC(=O)O)NC(=O)CNC(=O)[C@H]([C@@H](C)O)NC(=O)[C@H](CCC(=O)O)NC(=O)[C@H](C)NC(=O)[C@H](CC(N)=O)NC1=O, also called cyclo(F-F-Φ-r-p-P-R-R-F-Q-L-N-A-E-T-G-E)) [BH14] , report pIC50.
5.85

Source: patent US20190284240A1
